pIC50: −log10 of the molar value.
Parameter pIC50, tested on UniProtKB P13956, listed per item.
Sequence (P13956 whole entry): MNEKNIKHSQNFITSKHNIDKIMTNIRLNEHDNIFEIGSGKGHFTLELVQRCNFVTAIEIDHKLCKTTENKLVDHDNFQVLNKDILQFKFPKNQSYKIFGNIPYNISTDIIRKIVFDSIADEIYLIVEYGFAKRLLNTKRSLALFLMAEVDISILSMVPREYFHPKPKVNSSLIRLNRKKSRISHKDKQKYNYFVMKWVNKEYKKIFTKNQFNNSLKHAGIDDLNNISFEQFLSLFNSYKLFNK

# chemical.structure, pIC50
measured = [
    ("C(=N\\Nc1ncnc2c1nnn2Cc1ccccc1)/c1ccccc1", 3.60),
    ("O=C(c1c[nH]c(=O)[nH]1)N1CCN(c2ccc(C(F)(F)F)cn2)CC1", 4.00),
    ("O=C1c2ccccc2C(=O)N1CN(CCCn1ccnc1)CN1C(=O)c2ccccc2C1=O", 3.52),
    ("Cc1ccc(Sc2cc(C)c(C#N)c(Sc3ccc(C)cc3)n2)cc1", 3.74),
    ("O=C(c1cnc(Nc2ncccn2)s1)N1CCN(c2ccc(C(F)(F)F)cn2)CC1", 3.96),
]

---

# Ki listing for each entry below
experiment: Binding affinity to Enterococcus faecalis ErmAM methyltransferase assessed as inhibition constant

# chemical.structure, Ki
measured = [
    ("Nc1nc(NC2Cc3ccccc3C2)nc(N2CCC(C(=O)NCCc3c[nH]c4ccccc34)CC2)n1", "2 µM"),
    ("Nc1cccc(-c2nc(N)nc(NC3Cc4ccccc4C3)n2)c1", "4 µM"),
]

---

target: Catechol O-methyltransferase (Homo sapiens)
Sequence (P21964 whole entry): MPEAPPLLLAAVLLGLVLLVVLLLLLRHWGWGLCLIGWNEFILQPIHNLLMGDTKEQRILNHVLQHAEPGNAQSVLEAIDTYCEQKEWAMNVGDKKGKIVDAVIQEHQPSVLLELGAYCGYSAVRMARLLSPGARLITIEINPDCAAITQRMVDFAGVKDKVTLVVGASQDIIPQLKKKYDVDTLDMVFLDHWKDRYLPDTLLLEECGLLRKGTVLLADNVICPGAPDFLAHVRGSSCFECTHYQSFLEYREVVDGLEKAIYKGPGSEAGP
pIC50: −log10 of the molar value.

# chemical.structure, pIC50
measured = [
    ("COc1ccc(C(=O)Nc2cccc(-c3nc4ccccc4[nH]3)c2)cc1", 4.14),
]

Ref: ChEMBL document CHEMBL5257111
